Assayed target: CLK2 (human)
Test summary: KINOMEscan competition binding
Test settings: compound 1.0 µM
Assay metric: kinase still bound, per cent of control (%)
// note: answer is a bare numeric in %

Please report the recorded kinase still bound, per cent of control for `Cc1cc(NC(=O)c2cccc(NC(=O)/C=C/CN(C)C)c2)ccc1Nc1nccc(-c2cccnc2)n1` .
95

Would you mind telling me what kinase still bound, per cent of control value was observed for `CN(C)C/C=C/C(=O)Nc1cccc(C(=O)Nc2ccc(Nc3nccc(/C(C#N)=C4\Nc5ccccc5S4)n3)cc2)c1` ?
100

// kinase still bound, per cent of control lookup, key: `CN(C)C/C=C/C(=O)Nc1cccc(C(=O)Nc2ccc(Nc3nccc(-c4cccnc4)n3)cc2)c1`
18

Entry `CN(C)C/C=C/C(=O)Nc1cccc(C(=O)Nc2ccc(Nc3nccc(-c4c(-c5ccccc5)nn5ccccc45)n3)cc2)c1` has what kinase still bound, per cent of control?
90
